Here the recorded pKd is given for each entry.
# system.under.test: T1, recombinant human IL6R-his (human, UniProt P08887 20-365)
# T1 construct: In house made; the entry includes the C-terminal His tag; also called human IL6R-his protein
# T1 sequence: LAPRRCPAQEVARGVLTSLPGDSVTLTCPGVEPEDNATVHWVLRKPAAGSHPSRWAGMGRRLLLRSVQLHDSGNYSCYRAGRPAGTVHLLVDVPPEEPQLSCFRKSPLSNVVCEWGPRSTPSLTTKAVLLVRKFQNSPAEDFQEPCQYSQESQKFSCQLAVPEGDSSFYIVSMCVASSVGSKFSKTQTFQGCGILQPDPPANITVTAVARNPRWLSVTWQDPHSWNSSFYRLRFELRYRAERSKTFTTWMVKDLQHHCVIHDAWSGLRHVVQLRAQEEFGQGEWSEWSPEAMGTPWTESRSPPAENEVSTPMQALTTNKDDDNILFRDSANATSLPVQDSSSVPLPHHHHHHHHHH
# method.summary: SPR Biacore; antibody captured by anti-human IgG on CM5, human IL6R-his at 100 nM
Friendly reminder that pKd comes from taking -log10 of the concentration in mol/L.

1. Chimeric 1H9 (antibody, human IgG1, kappa, V domains shown, Mouse variable regions on human IgG1 / human kappa constant regions; also called chimeric antibody 1H9) VH: QVQLQQPGAELVKPGASVKLSCKASGYTFTSYWMHWVKLRPGQGLEWIGEINPTNGRTNYYEKFKNRATLTADKSSSTAYMQLSSLTFEDSAVYFCAKFHYSRWYFDVWGTGTTVTVSS VL: DIVMTQSQKFMSTSVGDRVSITCKASQNVGTAVVWYQQKPGQSPKLLINPASNRYTGVPDRFTGSGSGTDFTLTISNMQSEDLADYFCQQYSSYPLTFGAGTKLELKR : 9.04
2. Tocilizumab (antibody, human IgG1, kappa, V domains shown, In house made; also called benchmark; Actemra) VH: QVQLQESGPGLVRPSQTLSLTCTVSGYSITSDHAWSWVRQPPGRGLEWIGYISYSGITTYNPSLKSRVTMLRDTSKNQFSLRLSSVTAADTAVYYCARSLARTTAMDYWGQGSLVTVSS VL: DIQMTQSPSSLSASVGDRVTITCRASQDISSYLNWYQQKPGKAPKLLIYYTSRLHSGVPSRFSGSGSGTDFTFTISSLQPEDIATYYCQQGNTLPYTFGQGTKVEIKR : 8.49
3. Chimeric 1B5 (antibody, human IgG1, kappa, V domains shown, Mouse variable regions on human IgG1 / human kappa constant regions; also called chimeric antibody 1B5) VH: QVQLQQPGAELVKPGASVKLSCKASGYTFTSYWMHWVKQRPGQGLEWIGEINPSNGRTNYNENFKSKATLTVDKSSSTAYMQLSSLTSEDSAVYYCARLNTHYVFDYWGQGTTLTVSS VL: EIVLTQSPTILAASPGEKITFTCSVSSSISSNYLHWYQQKPGFSPKLLIYRTSNLASGVPARFSGSGSGTSYSLTIGTMEAEDVATYYCQQGSGIPFTFGSGTKLEIKR : 9.04

Q: Need pKd of Chimeric 1H7 (antibody, human IgG1, kappa, V domains shown, Mouse variable regions on human IgG1 / human kappa constant regions; also called chimeric antibody 1H7) VH: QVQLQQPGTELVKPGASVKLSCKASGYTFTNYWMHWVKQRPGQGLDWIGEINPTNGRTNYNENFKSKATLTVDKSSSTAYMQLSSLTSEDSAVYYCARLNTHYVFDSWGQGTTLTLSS VL: EIVLTQSPTTLAASPGEKITFTCSVSSSISSNYLHWYQQKPGFSPKLLISRTSTLASGVPARFSGSGSGTSYSLTIGTMEAEDVATYYCQQGSGIPFTFGSGTKLELKR , thanks.
A: 9.40

The origin of these recorded values is patent US20230167182A1.
